Values were extracted from patent US20210032365A1.

- ASSAY SYSTEM: T1, human C1s (human, UniProt P09871 16-688)
- T1 construct: Analyte in the Biacore assays; also called hC1s; serum-derived human C1s (CompTech)
- T1 sequence: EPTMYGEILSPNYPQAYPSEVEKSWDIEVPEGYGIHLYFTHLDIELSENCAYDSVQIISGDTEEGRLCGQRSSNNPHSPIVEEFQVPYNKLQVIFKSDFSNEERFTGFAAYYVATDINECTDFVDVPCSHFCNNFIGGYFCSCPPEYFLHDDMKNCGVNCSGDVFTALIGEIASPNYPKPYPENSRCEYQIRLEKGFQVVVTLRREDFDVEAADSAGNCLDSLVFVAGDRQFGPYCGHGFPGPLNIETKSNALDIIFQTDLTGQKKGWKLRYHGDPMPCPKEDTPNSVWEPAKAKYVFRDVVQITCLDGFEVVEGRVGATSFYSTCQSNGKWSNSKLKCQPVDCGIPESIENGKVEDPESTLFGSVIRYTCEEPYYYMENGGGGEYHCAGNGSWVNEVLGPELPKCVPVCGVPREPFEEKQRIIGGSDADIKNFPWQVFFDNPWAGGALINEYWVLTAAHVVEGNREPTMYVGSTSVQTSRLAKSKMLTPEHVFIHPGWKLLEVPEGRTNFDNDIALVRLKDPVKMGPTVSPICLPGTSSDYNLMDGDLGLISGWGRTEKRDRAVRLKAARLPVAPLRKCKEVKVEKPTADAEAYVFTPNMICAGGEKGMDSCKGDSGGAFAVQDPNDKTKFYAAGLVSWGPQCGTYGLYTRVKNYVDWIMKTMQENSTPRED
- TEST DESCRIPTION: SPR; KD at pH 5.8 (3 uM Ca) over KD at pH 7.4 (1.2 mM Ca)
Recorded KD 5(-)/7(+) for the following binders
API note: the answer field is a bare number with no unit suffix.

Worked set:
C1_IPN92H0279-SG4GK/IPN93L0091-SK1 (antibody, human IgG4 S228P, kappa, name in Kabat numbering, V domains shown, Substitutions from IPN009VH2 / IPN009VK3, Kabat numbering; also called IPN92H0279/IPN93L0091) VH: EVMLVESGGGLVKPGGSLRLSCAASGFTFSNYAMSWVRQAPGKGLEWVATISSGGSHTYELDSVKERFTISRDNSKDTLYLQMNSLRAEDTALYYCARLFTKHAMDYWGQGTLVTVSS VL: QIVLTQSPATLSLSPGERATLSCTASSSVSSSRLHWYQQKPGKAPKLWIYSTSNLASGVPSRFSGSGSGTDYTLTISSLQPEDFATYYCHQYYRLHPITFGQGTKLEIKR
7.54
C1_IPN92H0282-SG4GK/IPN93L0091-SK1 (antibody, human IgG4 S228P, kappa, name in Kabat numbering, V domains shown, Substitutions from IPN009VH2 / IPN009VK3, Kabat numbering; also called IPN92H0282/IPN93L0091) VH: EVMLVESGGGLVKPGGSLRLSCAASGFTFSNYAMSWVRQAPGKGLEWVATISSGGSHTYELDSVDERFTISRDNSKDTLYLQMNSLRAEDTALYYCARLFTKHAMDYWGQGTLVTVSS VL: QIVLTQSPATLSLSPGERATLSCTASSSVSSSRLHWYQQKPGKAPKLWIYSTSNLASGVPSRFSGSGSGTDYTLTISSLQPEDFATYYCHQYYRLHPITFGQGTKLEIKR
1.13

Query (binder): C1_IPN92H0261-SG4GK/IPN93L0091-SK1 (antibody, human IgG4 S228P, kappa, name in Kabat numbering, V domains shown, Substitutions from IPN009VH2 / IPN009VK3, Kabat numbering; also called IPN92H0261/IPN93L0091) VH: EVMLVESGGGLVKPGGSLRLSCAASGFTFSNYAMSWVRQAPGKGLEWVATISSGGSHTYELDSVKGRFTISRDNSKDTLYLQMNSLRAEDTALYYCARLFTKHAMDYWGQGTLVTVSS VL: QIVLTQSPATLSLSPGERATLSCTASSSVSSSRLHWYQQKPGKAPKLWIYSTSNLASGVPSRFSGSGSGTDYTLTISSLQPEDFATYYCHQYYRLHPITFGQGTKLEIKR ; field requested: KD 5(-)/7(+) 12.3
